# Experimental details: yeast display, Sf9 membrane polyspecificity reagent, FACS + sequencing; frameworks hold sequencing errors
Measurement label: polyreactivity (PSR sort gate)

{"Seq": "QVQHVESGGGLVQAGGSLRLSCASSGSTFWFYAMGWYRQAPGKERELVATINWYGGTTNYADSVKGRFTISRDNAKNSVYLQMYSLKPEDTADYYGAGYQALTYGSYEYWGQGSQVTVSS", "Measurement label": "polyreactivity (PSR sort gate)", "Result": "low polyreactivity"}
{"Seq": "QVQLVESGGGLVQAGGSLRLTCAASGRTFDYYAMGWYRQAPGKERELVAAIRGSGGSTYYADSVKGRFTISRDNAKNTVYLQMNSLKPEDTAVYYCATDPPYFRTPWEYDYWGQGTQVTVSS", "Measurement label": "polyreactivity (PSR sort gate)", "Result": "low polyreactivity"}

----------
# Experimental details: yeast display, Sf9 membrane polyspecificity reagent, FACS + sequencing; frameworks hold sequencing errors
Measurement label: polyreactivity (PSR sort gate)

{"Seq": "QVQLVESGGGLVQAGGSLRLSCAASGRTLDGNDMGWYRQPPGKERELVAAITVTGSSTYYADSVKGRFTISRDNAKNTVYLQMNSLKPEDTAVYYCAKASGGDVRYSYSYRMDYWGQGTQVTVSS", "Result": "low polyreactivity"}
{"Seq": "QDQLVESGGGLVQAGGSLRLSCAATGRIFVYYAMGWSRQAPGKERELVATISSGGSTYYADSVKGRFTISRDNAKNTVYLQMNSLKPDDTAVYYCAADNVNLYLAYYYKGDYWGQGTQVTVSS", "Result": "low polyreactivity"}

----------
# Experimental details: yeast display, Sf9 membrane polyspecificity reagent, FACS + sequencing; frameworks hold sequencing errors
Measurement label: polyreactivity (PSR sort gate)

{"Seq": "QVQLVESGGGLVQAGGSLRLSCAASGFIFRFNAMGWYRQAPGKEREMVAAISWRGGSTYYADSVKGRFTISRDNAKNTVYLQMNSLKPEDTAVYYCAADVTRYYRYGYNYWGQGSQVTVSS", "Result": "high polyreactivity"}
{"Seq": "QVHLVESGGGLVQAGCSLRVSCAASGRIFLYTGKGWSRQAAGKERELVAAISSGGSTYYADSVKGRFTISRDNAKNTVYLQMNSLKPEDTAVYYCAKEGHVVIFYIGQYELDFWGQGTQVTVSS", "Result": "low polyreactivity"}
{"Seq": "QLQLVESGGGLVQAGGSLRLSCAATGSTFYDNAMGWYRQAHGKERELVARIRWSGVRTYYADSVKGRFTISRDNAKNTVYLQMNSLKPEDTAVYYCAAGRPRPHWWSLDYYYWGQGTQVTVSS", "Result": "low polyreactivity"}
{"Seq": "QVQLVESGGGLVQAGGSLRLSCAASGFTFSLNTMGWYRQAPGKEREFVAAITYRTGRTYYADSVKGRFTISRDNAKNTVYLQMNSLKPDDTAVYYCNAGEHTRWYYWTPTYTTVDYWGLGTQVTVSS", "Result": "low polyreactivity"}
{"Seq": "QVQLVESGGGLVQVGGSLRLSCAASGFIFTHYAMGWYRQAPGKERELVAAISVDGGDTYYADSVKGRFTISRDNAKNTVYLQMNSLKPEDTAVYYYWGQGTQVTVSS", "Result": "low polyreactivity"}
{"Seq": "QVQLVESGGGLVQAGGSLRLSCAASARIFPVYAMGWYRQAPGKERELVAAISRSAGRTYYADSVKGRFTISRDNAKNTVYLQMNRLKPEDTAVYFCAAQSPYGYDYWGQGTQVTVSS", "Result": "low polyreactivity"}
{"Seq": "QFQLVESGGGLVQAGGSLRLSCAASGRTFYDNTMGWYRQAPGKERELVAAITRNGGSTYYADSVKGRFTISRDNAKNTVYLQMNSLKPEDTAVYYCAAEGPSHRLNVRLVKGSDSWGQGTQVTVSS", "Result": "low polyreactivity"}
{"Seq": "QVQLVESGGGLVQAGGSLRLSCAASGSTFDQYAMGWYRQEPGKERELGAAISGSGGRTYYADSVKGRFTISRDNAKNTVYLQLNSLKPEDTAVYYCNTRAWRWGTDNSWGQGTQVTVSS", "Result": "high polyreactivity"}
{"Seq": "QVQLVESGGGLVQAGGSLRLSCAASGRIFRGYAMGWYRQAPGKERELVAAINSGGDTYYADSVKGRFTISRDNAKNTVYLQMNSLKPEDTAVYYCAAAWWDYGNGKYDYWGQGTQVTVSS", "Result": "low polyreactivity"}
{"Seq": "QVQLVESGGGLVQAGGSLRVICAPSGSTFGVYAMGWYRQAPGKERDLVAAISDTGGSTYYADSVKGRFTISRDNAKTTVYLQMNSLKPEDTAVYYCAVEVGYTDSPYSYDYWGHGTQVTVSS", "Result": "low polyreactivity"}
{"Seq": "QVQLVESGGGLVQAGGSLRLSCAASGITFRRNAMGWSRQAHGQVRELVAAITRSGGSTYYADSVKGRFTISRDNAKNTVYLQMNSLKPEDTADYYCAADNTNDEDTGYYWGQGTQVTVSS", "Result": "high polyreactivity"}

----------
# Experimental details: yeast display, Sf9 membrane polyspecificity reagent, FACS + sequencing; frameworks hold sequencing errors

{"Seq": "QVQLVESGGGLVQAGGSLRLSCAASGSIFATYAMGWYRQAPGKERELGAAISRSGGSTYYADSVKGRFTISRDNAKNTVYLQMNSLKPEDTAVYYCAAVRGYGWWWSRWGSREYWGQGTQVTVSS", "polyreactivity (PSR sort gate)": "high polyreactivity"}
{"Seq": "QVQLVESGGGIVQAGGSLRLSCAASGSIFSFNAMGWYRQAPGKERELVAAISRGGSTYYADSVKGRFTISRDNAKNTVYLQMNSLKPEDTAVYYCAADIYGHSYSYYLGEYWGQGTQVTVSS", "polyreactivity (PSR sort gate)": "high polyreactivity"}
{"Seq": "QVQLVESGGGLVQAGGSLRLSCAATGRIFKTYAMGWYRQAPGKERELVAAISWTVVSTHYADSVKGRFTISRDNAKNTVYLQMNSLKPEDTAVYYCNADTPLRHRTWNRKVTDFEYDYWGQGTQVTVSS", "polyreactivity (PSR sort gate)": "low polyreactivity"}
{"Seq": "QVQLVESGGGLVQAGGSLRLSCAASGSTFYDYAMGWYRQAPWKERELVAAITSGGSTYADSVKGRFTISRYNAKNTVYLQMNSLKPEDTAVYYCNKDFVVEYWWHHVYVYYYLGDYWGQGTQVTVSS", "polyreactivity (PSR sort gate)": "low polyreactivity"}
{"Seq": "QDQLVESGGGLVHAGGSLRLSCAASGSTFQYYVMGWYRQAPGKERELVAAITWSGGSTYYADSVKGRFTISRDNAKNTVYLQMNSLKPEDTAVYYCKAASGPDFEYEYWGEGTQVTVSS", "polyreactivity (PSR sort gate)": "low polyreactivity"}

----------
# Experimental details: yeast display, Sf9 membrane polyspecificity reagent, FACS + sequencing; frameworks hold sequencing errors

{"Seq": "QVQLVESGGGLVQAGGSLRLSGAASGRIFYSNAMGWYRQAHGKERELVAAITRAGSTNYADSVKGSFTISRDIAKNTVYLQMNSLKPDDTAVYDCAATYGCSVFEYDYWGQGTQVTVSS", "polyreactivity (PSR sort gate)": "low polyreactivity"}
{"Seq": "QVQLVESGGGLVEAGGSLRISCAASGFIFGPYAMGWYRQAPGKERELVAASWRGGSTYYADSVKGRFTISRDNAKNTVYLQMNSLKPEDTAVYYCAADVIYSLYYYWGQGTQVTVSS", "polyreactivity (PSR sort gate)": "low polyreactivity"}
{"Seq": "QVQLVESGGGLVQAGGSLRLSCAASGSTFADYAMGWYRQAPGKERELVAAITGDGGNTYYADSVKGRFTISRDTAKNTVYLQMTSLKPEDTAVYYCAAEHESGAYYYWGLGTQVTVSS", "polyreactivity (PSR sort gate)": "high polyreactivity"}
{"Seq": "QFQLVESGGGLVQSGGSLRLSCAASGSTFGYYTMGWYRPAPGTERELVAAITWSGGSTYYADSVKGRFTISRDNAKNTVYLPMNSLKPEDTAVYYCAADDYWTPFGYWGQGTQVTVSS", "polyreactivity (PSR sort gate)": "low polyreactivity"}
{"Seq": "QVQLVESGGGLVQAGGSLRLSCASSGRTLPYNAMGWYRQAPGKERELVAAISKRGSSTYYADSVKGRFTLSRDNAKNTVYLQMNSLKPEDTAVYYCAKGGSFYYWGQGTQVTVSS", "polyreactivity (PSR sort gate)": "high polyreactivity"}

----------
# Experimental details: yeast display, Sf9 membrane polyspecificity reagent, FACS + sequencing; frameworks hold sequencing errors

{"Seq": "QVQLVESGGGLVQAGGSLRLSCAASGRTFRYYAMGWYRQAPGKEREFVAAITSRSSRTYYADSVKGRFTISRDTAKNTVYLQMNSLKPEDTAVYYCARGSELGYYAWVYYWGQGTQVTVSS", "polyreactivity (PSR sort gate)": "high polyreactivity"}
{"Seq": "QGQLVESGGGLVQAGGSLRLSCAATGFTFRYYAMGWYRHAPGKERELVATITRGGSTNYADSVKGRFTISRDNAKNTVYLQMNSLKPEDTAVYYCATGKNYWRGYEYWGQGTQVTVSS", "polyreactivity (PSR sort gate)": "low polyreactivity"}
{"Seq": "QVQLVDSGGGLVQAGGSLRLTFAASGRTFRWNVMGWYRQAPGKERELVATISRRSGSTNYADSVKGRFTISRDNAKITVYLQMNSLKPEDTAVYYCAVVIVRALVYAGDYWGQGTQVTVSS", "polyreactivity (PSR sort gate)": "low polyreactivity"}
{"Seq": "QVQLVESGAGLVQAGGSLRLCCAASGRTYRLYAMGWYRQAPGKERELVAAITRGGRTNYADSVKGRFTISRDNAINTVYLQMYSLKPEDIAVYYCAARYVERHTDYYYWGQGTQVTVSS", "polyreactivity (PSR sort gate)": "low polyreactivity"}
{"Seq": "QVQLVESGGGLVQAGGSLRLSCAASGSIFLGYAMGWYRQAPGKERELVAAITSGGSTNYADSVKGRFTISRDNAKNTVYLQMNSLKPEDTAVYYCAAKGEWSLVYTDYDYWGQGTQVTVSS", "polyreactivity (PSR sort gate)": "low polyreactivity"}
{"Seq": "QVQLVESGGGLVQAGGSLRLSCAASGSIFFGNAMGLYRQAPGKERELVAAISTTGGSTYYADSVKGRFTISRDNAKNTVYLQMNSLKPEDTAVYYCNADRATWWEQWWYDYWGQGTQVTVSS", "polyreactivity (PSR sort gate)": "low polyreactivity"}
{"Seq": "KVQLVESGGGLVQAGGSLRLSCPASGSIFTSYAMGWYRQAPGKERELVAAISSGGSTNYADSVKGRFTISRDNAKNTVYLQMNSLKPEDTAVYYCAKGSRKSGYKYYHGRVWFGYWGQGTQVTVSS", "polyreactivity (PSR sort gate)": "high polyreactivity"}
{"Seq": "QVQLVESGGGLVQAGGSLRLSCAASGITFVVYAMGCYRPAPGKERELVASITYSGGSTYYADSVQGRFTISRDNAKNTVYLQMTSLKPEDTAVYYCNADGYTIYYLPYSDYDAYDYWGQGTQVTVSS", "polyreactivity (PSR sort gate)": "low polyreactivity"}
{"Seq": "QVQLVESGGGLVQAGGSLRLSCAASGLTFYYYAMGWYRQAPGKERELVAAISCSGGSTYYADSVKGRFTISRDNAKNTVYLQMNSLKPEDTAVYYCAAEGDYFLWYRYDYWGQGTQVTVSS", "polyreactivity (PSR sort gate)": "high polyreactivity"}
{"Seq": "QVQLVESGGGLVQAGGSLRLSCAASGRTFLGYAMGWYRQAPGKERELVAAINRSGGRTYYADSVKGRFTISRDNAKNTVYLQMNSMKQEDTSVYYCAAYTSYSAYDYWGQGTQVTVSS", "polyreactivity (PSR sort gate)": "high polyreactivity"}
{"Seq": "QVQLVESGGGLVQEGGSLRLSCAASGRTFGVYAMGWYRQAPGKESTYYADSVKGRFTISRDNAKNTVYLQMNSQKQEDTAVYYCAADEWYYIDPSDDYWGQGSQVTVSS", "polyreactivity (PSR sort gate)": "low polyreactivity"}
